- study_target: Carbonic anhydrase 9 (Homo sapiens, UniProt Q16790)
- assay_details: Inhibition of recombinant human carbonic anhydrase 9 incubated for 15 mins prior to testing by stopped flow carbon dioxide hydrase assay
pKi: −log10 of the molar value.
// Not fulfilled strictly below 7 in pKi; Fulfilled otherwise

mol_smiles: NS(=O)(=O)c1ccc(NC(=O)c2ccc(/N=C3\C(=O)Nc4ccc(Cl)cc43)cc2)cc1
classification: Not fulfilled
--
mol_smiles: NS(=O)(=O)c1ccc(NC(=O)Nc2ccc(/N=C3\C(=O)Nc4ccc([N+](=O)[O-])cc43)cc2)cc1
classification: Fulfilled
--
mol_smiles: NS(=O)(=O)c1ccc(NC(=O)Nc2ccc(/N=C3\C(=O)Nc4ccc(Cl)cc43)cc2)cc1
classification: Not fulfilled
--
mol_smiles: NS(=O)(=O)c1ccc(NC(=O)c2ccc(/N=C3\C(=O)Nc4ccccc43)cc2)cc1
classification: Not fulfilled
--
mol_smiles: NS(=O)(=O)c1ccc(NC(=O)Nc2ccc(/N=C3\C(=O)Nc4ccc(Br)cc43)cc2)cc1
classification: Not fulfilled

# input # check: pKi of Cc1ccc2c(c1)/C(=N/c1ccc(NC(=O)Nc3ccc(S(N)(=O)=O)cc3)cc1)C(=O)N2 is greater than or equal to 7
# output Fulfilled

# input Please tell me: is the compound NS(=O)(=O)c1ccc(NC(=O)Nc2ccc(/N=C3\C(=O)Nc4ccc(F)cc43)cc2)cc1 at or over 7 in terms of pKi?
# output Not fulfilled

# input Record NS(=O)(=O)c1ccc(NC(=O)Nc2ccc(/N=C3\C(=O)Nc4ccccc43)cc2)cc1 ; criterion: pKi no lower than 7. Met?
# output Not fulfilled

# input Please check the record NS(=O)(=O)c1ccc(NC(=O)c2ccc(/N=C3\C(=O)Nc4ccc(Br)cc43)cc2)cc1 and state if its pKi is at or above 7.
# output Not fulfilled

# input Exam item: decide whether the reported pKi for NS(=O)(=O)c1ccc(/N=C2\C(=O)Nc3ccc([N+](=O)[O-])cc32)cc1 is at least 7.
# output Fulfilled
